Here, each record is paired with measured self-cleavage kobs at 10000 uM GlcN6P data.
B1: glmS ribozyme (parent)
chain: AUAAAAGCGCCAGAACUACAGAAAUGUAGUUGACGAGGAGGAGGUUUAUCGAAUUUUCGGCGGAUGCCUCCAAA

- Variants of: B1
- testMethodNotes: self-cleavage kobs at 10000 uM GlcN6P; higher = faster cleavage; RNA array
- conditionNotes: with glucosamine-6-phosphate
Variants at the floor of the assay were thinned out.
Response body: numeric value in s⁻¹, unit text excluded.

Known self-cleavage kobs at 10000 uM GlcN6P results, listed for orientation:
AUAAAAGCGCCGGAACUACAGAAAUGUAGUUGACGAGGAGGAGGUCUAUCGAAUUUUCGGCGGAUGCCUCCAAA [A12G U46C]: 0.000349
AUAAAAGCGCCAGAACUACAGAAAUGUAGUUGUCGAGGAGGAGGUUUAUCGAAUUUUCGGCGGAUGCCUCUAAA [A33U C71U]: 0.0001
AUAAAAGCGCCAGAACUACAGAAAUGUAGUUGACGAGGAGGAGGUUUCUCGAAUUUUCGGCGGAUGCCUCUAAA [A48C C71U]: 0.00026
AUAAAGGCGCCAGAACUACAGAAAUGUAGUUGACGAGGAGGAGGUUUAUGGAAUUUUCGGCGGUUGCCUCCAAA [A6G C50G A64U]: 0.000157
AUAAAAGCGCCAGAACUACAGAAAUGUAGUUGACGAGGAGGAGGUUUAUCGAGUCUUCGGCGGAUGCCUCCAAA [A53G U55C]: 0.0167

Determine its reported self-cleavage kobs at 10000 uM GlcN6P: AUAAAAGCGCCAGACCUACAGAAAUGUAGUUGACGAGGAGGGGGUUUAUCGAAUUUUCGGCGGAUGCCUGCAAA [A15C A42G C70G]
4.12e-05

Give self-cleavage kobs at 10000 uM GlcN6P for the following variant: AUAAAAGCGCCAGAACUACAGAAAUGUAGUUGACGAGGAUGAGGUGUAUCGAAUUUUCGGCGGAUGCCUCCAAA [G40U U46G]
0.000785

Using the record for AUAAAAGCGCCAGACCUACAGAAAUGUAGUUGACGAGGAGGAGGUUUAUCGAGUUUUCGGCGGAUGCCUCCAAA [A15C A53G] , state its measured self-cleavage kobs at 10000 uM GlcN6P.
0.00839

Answer with reported self-cleavage kobs at 10000 uM GlcN6P of AUAAAAGCGCCAUAACUACAGAAAUGUAGUUGACGAGGAGGAGGUGUAUCGAAUUUUCGGCGGAUGCCUCCAAA [G13U U46G]
0.000153
